B1: library; a variant is named by its letters at N, in order (parent)
chain: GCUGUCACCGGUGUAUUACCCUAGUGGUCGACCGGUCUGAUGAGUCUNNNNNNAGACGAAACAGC

Variants of: B1
test-name: normalized RNA/DNA level with ligand (relative to sTRSVctl = 100) (log10 (% of sTRSVctl)); ligand: hypoxanthine (xanthine aptamer); higher = less ribozyme self-cleavage, higher mRNA level
assay-context: ligand concentration (+) RNA-Seq: 5 mM, HEK293T, reporter: mCherry (pCS4076), ligand present: yes
What normalized RNA/DNA level with ligand (log10) was measured for each of the following?
Numbers only.

| variant-designation | data-value |
| --- | --- |
| CACCGA | 1.94 |
| AGUAUG | 1.82 |

# map each variant to its normalized RNA/DNA level with ligand (log10)
1. CCCCCG
2. UGCACA
3. GUACUA
4. UUCUCA
5. GUAGCU
6. CCGGAU
7. CCGUAU
8. AAGAUA

Reply |
1: 1.92; 2: 1.93; 3: 1.94; 4: 1.98; 5: 1.98; 6: 1.97; 7: 1.91; 8: 1.89

# map each variant to its normalized RNA/DNA level with ligand (log10)
1. GGUCUA
2. CAGAGG
3. UAAGUA
4. CAUAAU
5. GUUGUA
6. GUGAAG
7. AUUUUG
8. AUUAAA

Reply |
1: 1.9; 2: 1.81; 3: 1.89; 4: 1.88; 5: 1.9; 6: 1.73; 7: 1.93; 8: 1.89
